Value source: paper PMC11013284

- System: murine macrophages
- Procedure details: Qualitative toxicity toward mouse macrophages
- Condition notes: concentration at which toxicity was observed; 64, 16 and 4 µM tested
- Protocol: The cytotoxicity of compounds was evaluated toward human diploid embryonic lung fibroblast hMRC-5SV2 cells, derived from fetal lung tissue and first described in 1970. hMRC-5SV2 cells were cultured in 96-well plates with five concentrations of the compound (64, 16, 4, 1, and 0.25 μM). After 3 days of incubation, the cell viability was assessed fluorimetrically after the addition of resazurin, and fluorescence was measured (λex = 550 nm, λem = 590 nm). […]
Quantity kind: Toxicity (T) observed toward murine macrophages

Known results for compounds:
Compound	Test system	Experimental value
COc1ccc(C2CC(=O)CC(c3ccc(OC)cc3)[S+]2[O-])cc1 (stereo not drawn) [3″d]	murine macrophages	T1 (T1 = 64)
COc1cc(Br)c(OC)c(/C=C/C(=O)/C=C/c2cc(OC)cc(Br)c2OC)c1 [1q]	murine macrophages	T1 (T1 = 64)
COc1ccc(/C=C/C(=O)/C=C/c2ccc(OC)c(OC)c2)cc1OC [1j]	murine macrophages	T1 (T1 = 64)
O=C1CC(c2ccccn2)[S+]([O-])C(c2ccccn2)C1 (mixture of isomers) [3′w]	murine macrophages	T3 (T3 = 4)
O=C(/C=C/c1ccccn1)/C=C/c1ccccn1 [1w]	murine macrophages	T3 (T3 = 4)

Would you mind giving Toxicity (T) observed toward murine macrophages for every compound in the list below?
1. O=C(/C=C/c1c(Cl)cccc1Cl)/C=C/c1c(Cl)cccc1Cl [1h]
2. Cl.Cl.O=C(/C=C/c1ccncc1)/C=C/c1ccncc1 [1y]
3. O=C1CC(c2ccccn2)[S+]([O-])C(c2ccccn2)C1 (stereo not drawn) [3w]
4. O=C(/C=C/c1ccco1)/C=C/c1ccco1 [1z]
5. COc1cc(Br)c(O)c(/C=C/C(=O)/C=C/c2cc(OC)cc(Br)c2O)c1 [1p]
6. O=C1CC(c2ccccn2)S(=O)(=O)C(c2ccccn2)C1 (racemic) [4w]

Result:
T1 (T1 = 64)
T3 (T3 = 4)
T3 (T3 = 4)
T1 (T1 = 64)
T1 (T1 = 64)
T3 (T3 = 4)

Items follow; give Toxicity (T) observed toward murine macrophages for each.
1. O=C1CC(c2ccccn2)S(=O)(=O)C(c2ccccn2)C1 (stereo not drawn) [4′w]
2. COc1ccc(C2CC(=O)CC(c3ccc(OC)cc3)S2(=O)=O)cc1 (stereo not drawn) [4′d]
3. N#Cc1ccc(/C=C/C(=O)/C=C/c2ccc(C#N)cc2)cc1 [1t]
4. COc1ccc(OC)c(/C=C/C(=O)/C=C/c2cc(OC)ccc2OC)c1 [1m]
5. O=C(/C=C/c1ccccc1Cl)/C=C/c1ccccc1Cl [1e]
6. Cl.Cl.O=C(/C=C/c1cccnc1)/C=C/c1cccnc1 [1x]

Result:
1: T3 (T3 = 4); 2: T1 (T1 = 64); 3: T2 (T2 = 16); 4: T1 (T1 = 64); 5: T2 (T2 = 16); 6: T1 (T1 = 64)

Problem: What Toxicity (T) observed toward murine macrophages appears in the records for this compound with murine macrophages? Cc1ccc(/C=C/C(=O)/C=C/c2ccc(C)o2)o1 [1za]
Result: T2 (T2 = 16)

* * *

- Test system: human diploid embryonic lung fibroblast hMRC-5SV2 cells
- Procedure details: in vitro
Provide the recorded CC50 for the entries that follow.

Compound	CC50
O=C1C[C@@H](c2ccc(F)cc2)S[C@@H](c2ccc(F)cc2)C1 [2’g]	6.4 µM
COc1cc(/C=C/C(=O)/C=C/c2ccc(O)c(OC)c2)ccc1O [1i]	1.1 µM
COc1cc([C@@H]2CC(=O)C[C@H](c3cc(OC)c(C)cc3OC)S2)c(OC)cc1C [2’o]	> 64 µM

Parameters: items (list). Returns: CC50 for each item.
1. O=C1CC(c2ccco2)SC(c2ccco2)C1 (racemic) [2z]
2. Cc1ccc(C2CC(=O)CC(c3ccc(C)cc3)S2)cc1 (racemic) [2c]
3. COc1cc(Br)c(OC)c([C@@H]2CC(=O)C[C@H](c3cc(OC)cc(Br)c3OC)S2)c1 [2’q]

Result:
> 64 µM
24.2 µM
> 64 µM

Quick batch: CC50 for everything below.
1. CN(C)c1ccc(/C=C/C(=O)/C=C/c2ccc(F)cn2)cc1 [1’q]
2. CN(C)c1ccc([C@H]2CC(=O)C[C@H](c3ccc(N(C)C)cc3)S2)cc1 (racemic) [2u]
3. Cc1ccccc1C1CC(=O)CC(c2ccccc2C)S1 (racemic) [2b]

Result:
1: 32.2 µM; 2: 5 µM; 3: > 64 µM

* * *

- Test system: L. infantum (MHOM/MA(BE)/67) amastigotes in primary peritoneal mouse macrophages
- Procedure details: L. infantum intramacrophage amastigote assay (microscopic burden)
- Type: cell-based, Leishmania infantum
- Condition notes: 5 days, mouse macrophages as host
Quantity kind: IC50 L. infantum intramacrophage amastigotes

Compound	Test system	Experimental value
O=C1CC(c2ccccn2)S(=O)(=O)C(c2ccccn2)C1 (stereo not shown) [4′w]	L. infantum (MHOM/MA(BE)/67) amastigotes in primary peritoneal mouse macrophages	excellent potency
O=C1CC(c2ccccn2)S(=O)(=O)C(c2ccccn2)C1 (racemic) [4w]	L. infantum (MHOM/MA(BE)/67) amastigotes in primary peritoneal mouse macrophages	excellent potency

* * *

- System: Trypanosoma cruzi (Tulahuen CL2 β-galactosidase) amastigotes in hMRC-5SV2 cells
- Procedure details: T. cruzi intracellular amastigote assay (β-galactosidase/CPRG)
- Type: cell-based
- Condition notes: intracellular amastigotes, 7 days; read-out: IC50 T. cruzi intramacrophage amastigotes (converted)
Hi! Could you tag entries with IC50 below 30 µM as t, and those at or above as f? Much appreciated.

Problem: Below 30 µM on IC50? Entry O=C(/C=C/c1ccccc1)/C=C/c1ccc(C(F)(F)F)cc1
Result: f

Problem: Same question, CN(C)c1ccc(/C=C/C(=O)/C=C/c2nccs2)cc1 this time
Result: t

Problem: Next compound: O=C1C[C@@H](c2ccccc2Cl)S[C@@H](c2ccccc2Cl)C1
Result: f

Problem: Also COc1cc(/C=C/C(=O)/C=C/c2ccc(O)c(OC)c2)ccc1O ?
Result: t

Problem: # iterate: O=C1CC(c2ccccc2Cl)SC(c2ccccc2Cl)C1 (racemic)
Result: f

Problem: Next record, please: N#Cc1ccc(C2CC(=O)CC(c3ccc(C#N)cc3)S2)cc1 (racemic)
Result: f

Problem: Another compound to check: Cc1ccc(/C=C/C(=O)/C=C/c2ccccc2)cc1
Result: t

Problem: Also, COc1cc(Br)c(OC)c([C@@H]2CC(=O)C[C@H](c3cc(OC)cc(Br)c3OC)S2)c1 please.
Result: t

Problem: How about this compound: O=C(/C=C/c1ccccc1)/C=C/c1ccccn1
Result: t

Problem: Try COc1ccc([C@H]2CC(=O)C[C@H](c3ccc(OC)cc3)S2)cc1 (relative stereo) next.
Result: f

* * *

- System: HePC-R L. donovani promastigotes
- Procedure details: L. donovani promastigote assay, miltefosine-resistant strain
- Type: cell-based
- Condition notes: Leishmania donovani, read-out: IC50 ± SD HePC-R L. donovani promastigotes
Quantity kind: pIC50
Answers are plain numbers, as −log10 of the molar value.

Here is how some compounds turned out for pIC50.
Sample smiles	Experimental value
N#Cc1ccc(/C=C/C(=O)/C=C/c2ccc(C#N)cc2)cc1	5.62
O=C(/C=C/c1ccccc1Cl)/C=C/c1ccccc1Cl	5.11

Please find the next compound below.
Problem: What measured pIC50 goes with O=C(/C=C/c1ccc(Cl)cc1)/C=C/c1ccc(Cl)cc1 ?
Result: 5.43

* * *

- Tested on: WT LV9 L. donovani promastigotes
- Procedure details: L. donovani promastigote assay (MTT), wild type
- Type: cell-based
- Condition notes: Leishmania donovani, 72 h, 3 days; read-out: IC50 ± SD WT LV9 L. donovani promastigotes
- Method: L. donovani promastigote forms from the logarithmic phase culture were suspended to yield 10^6 cells/mL. Miltefosine was used as the antileishmanial reference compound. Compounds to be evaluated and miltefosine were distributed in the plates by making a serial dilution. The final concentrations used were between 100 µM and 50 nM. Triplicates were used for each concentration. […] The absorbance at 570 nm, directly proportional to the number of viable cells, was measured using an ELISA plate reader. […]
Quantity kind: IC50 (µM)
Answers are plain numbers, in µM.

Hi! Can you tell me IC50 for each of these compounds?
1. O=C(/C=C/c1ccccc1Cl)/C=C/c1ccccc1Cl
2. O=C(/C=C/c1ccc(Cl)cc1)/C=C/c1ccc(Cl)cc1

Result:
[3.6, 6.7]

Batch request: IC50 for each of the following compounds.
1. N#Cc1ccc(/C=C/C(=O)/C=C/c2ccc(C#N)cc2)cc1
2. C[C@@H]1[C@H](O)[C@@H](C)/C=C/C=C/C=C/C=C/C=C/C=C/C=C/[C@H](O[C@@H]2O[C@H](C)[C@@H](O)[C@H](N)[C@@H]2O)C[C@@H]2O[C@](O)(C[C@@H](O)C[C@@H](O)[C@H](O)CC[C@@H](O)C[C@@H](O)CC(=O)O[C@H]1C)C[C@H](O)[C@H]2C(=O)O [Amphotericin B, reference compound]

Result:
6.6
0.04
